These measurements were taken from paper PMC5233962.

Tested system: human recombinant membrane-bound MAO B (Homo sapiens)
Construct: purchased Sigma-Aldrich
Sequence (P27338 whole entry): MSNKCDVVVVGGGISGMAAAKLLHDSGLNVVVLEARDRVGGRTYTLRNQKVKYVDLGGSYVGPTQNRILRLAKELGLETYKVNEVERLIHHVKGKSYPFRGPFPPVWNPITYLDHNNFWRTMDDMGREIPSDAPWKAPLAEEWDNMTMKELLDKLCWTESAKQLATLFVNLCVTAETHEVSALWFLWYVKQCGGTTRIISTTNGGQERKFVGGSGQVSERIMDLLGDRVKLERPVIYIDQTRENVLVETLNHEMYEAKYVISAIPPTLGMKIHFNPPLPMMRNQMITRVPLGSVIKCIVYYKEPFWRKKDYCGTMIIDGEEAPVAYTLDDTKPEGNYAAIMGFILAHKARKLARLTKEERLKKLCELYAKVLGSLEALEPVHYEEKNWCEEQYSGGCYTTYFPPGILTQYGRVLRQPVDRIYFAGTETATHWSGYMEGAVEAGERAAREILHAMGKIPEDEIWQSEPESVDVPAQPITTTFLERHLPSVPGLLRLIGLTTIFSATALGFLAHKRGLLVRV
Test name: Spectrophotometric IC50 determination, human MAO B
Type: biochemical
Particulars: substrate BZA, spectrophotometric; read-out: IC50 hMAO B
Measurement name: pIC50
The quantity pIC50 is defined as the negative base-10 logarithm of the molar concentration.

Form field pIC50 for item O=C(c1ccc(OCCCc2cnc[nH]2)cc1)C1CC1 [Ciproxifan] on human recombinant membrane-bound MAO B (Homo sapiens): 5.37
